Target: AMP-activated protein kinase, AMPK (Homo sapiens) (UniProt P54646+O43741+P54619+Q9UGJ0+Q9Y478+Q13131+Q9UGI9)
Test: AMP-dependent Kinase enzyme assay. An in vitro enzyme assay that detects ADP turnover that is directly proportional to AMPK activity. This uses naive AMPK that is activated during the assay with MK-8722
Format: functional
Design: scale not given: direction of the effect not stated beside the values
Details: 30 µM
quantity_kind: Percent Effect (%)

# compound, meas_value
measured = [
    ("Cc1cc(C(=O)N2CCCC(n3cncn3)C2)c(C)n1C1CC1 (centres undefined)", 2.66),
    ("Oc1cc(CCC2CCCCN2)cc(-c2ccncc2)c1 (centres undefined)", -8.16),
    ("CC(C)c1nccn1C1CCCN(C(=O)c2ccc3[nH]nnc3c2)C1 (centres undefined)", -5.52),
    ("COc1cc(CCC(=O)NC2CC2)ccc1OCC(F)(F)F", -5.56),
    ("CC(=O)c1cccc(OCCCC(=O)N(C)CCc2ccncc2)c1", -3.93),
    ("CC(CNCc1ccncc1)Oc1ccccn1 (centres undefined)", -1.66),
    ("c1ccc(-c2nnn3c2COC(CNCC2CCOCC2)C3)cc1 (centres undefined)", 10.9),
    ("COc1c(CNCc2ccc(N(C)C)nc2)c(C(C)C)nn1C", -3.28),
    ("CC(=O)c1cccc(S(=O)(=O)N2CSCC2C(=O)NCC(F)(F)F)c1 (centres undefined)", 7.23),
    ("OC1CCN(Cc2c(C3CCCNC3)[nH]c3ncccc23)CC1 (centres undefined)", 11.9),
    ("CC1CCCN(CCNC(=O)c2ccn(-c3ccccc3)n2)C1 (centres undefined)", 2.11),
    ("CNC(=O)[C@H]1C[C@H]2OCC[C@H]2N(Cc2ccc(C)o2)C1", 4.6),
    ("O=C(NCCCOCC1CCCO1)c1cccnc1N1CCCC1 (centres undefined)", 4.06),
    ("CC(=O)Nc1nc(C(=O)NC(C)c2ccc3c(c2)OCCO3)cs1 (centres undefined)", 6.51),
    ("O=C1[C@H]2CN(CC3CC3)C[C@H]2CN1Cc1cccc(F)c1", 4.89),
    ("NC(=O)NCC1CCCCN1C(=O)c1cccc(C(F)(F)F)c1 (centres undefined)", -2.74),
    ("Cc1cnn(CC2CN(Cc3nc(-c4ccoc4)no3)CCO2)c1 (centres undefined)", -1.58),
    ("COc1ccnc(N2CCN(CC(=O)N3CCOCC3)CC2)n1", 3.44),
    ("Cc1cccc(N2CCN(CCNC(=O)c3ccnn3C)CC2)c1", -1.81),
    ("CN1CCC(CCNC(=O)c2ccc(N(C)S(C)(=O)=O)cc2Cl)CC1", -1.14),
    ("CN(CCCNC(=O)N1CCCC1c1ccsc1)c1ccccn1 (centres undefined)", -13.6),
    ("CC(=O)N1CCCC1c1nnc2n1CCCCC2 (centres undefined)", 1.68),
    ("CC(C)c1nc2c(n1C)CCN(Cc1nc(-c3cccs3)no1)C2", 8.78),
    ("CC(NCc1ccccc1Br)c1ccc2[nH]c(=O)[nH]c2c1 (centres undefined)", -5.22),
]
